Target: X-box-binding protein 1 (Homo sapiens)
Experiment: ATG_Xbp1_CIS: Attagene CIS-FACTORIAL HepG2 Assay for human X-box Binding Protein 1 (XBP1) (AID 2282972)
Conditions: HepG2 XBP1 cis-element reporter, Attagene multiplex; actives raise or lower the signal
Activity calls are given as the source filed them. How the source made its calls: active means hit-call score of the fitted dose curve at least 0.9, where 1 is the maximum; inactive means score below 0.9.
Pick from yes (active), no (inactive) when you respond.

O=C1C(N(CO)C(=O)NCO)N(CO)C(=O)N1CO (centres undefined)    no
CCN(CCC#N)c1ccc(N=Nc2c(Cl)cc([N+](=O)[O-])cc2Cl)cc1    no
CCOC(=O)CC(C(C)=O)C(C)=O    no

Q. Just curious, what result did CN(C)CCCN(C)C get here?
A. no

Q. Similarly, O=C1CCCCCCCCCCCCCCCO1 ?
A. no

Q. What do you have for O=c1c2ccccc2oc2ccccc12 ?
A. no

Q. N=c1ccn2c(n1)O[C@H]1[C@H](O)[C@@H](CO)O[C@H]12 , same question.
A. no

* * *

Target: Retinoic acid receptor alpha (Homo sapiens) (UniProt P10276)
Sequence (P10276 whole entry, looked up): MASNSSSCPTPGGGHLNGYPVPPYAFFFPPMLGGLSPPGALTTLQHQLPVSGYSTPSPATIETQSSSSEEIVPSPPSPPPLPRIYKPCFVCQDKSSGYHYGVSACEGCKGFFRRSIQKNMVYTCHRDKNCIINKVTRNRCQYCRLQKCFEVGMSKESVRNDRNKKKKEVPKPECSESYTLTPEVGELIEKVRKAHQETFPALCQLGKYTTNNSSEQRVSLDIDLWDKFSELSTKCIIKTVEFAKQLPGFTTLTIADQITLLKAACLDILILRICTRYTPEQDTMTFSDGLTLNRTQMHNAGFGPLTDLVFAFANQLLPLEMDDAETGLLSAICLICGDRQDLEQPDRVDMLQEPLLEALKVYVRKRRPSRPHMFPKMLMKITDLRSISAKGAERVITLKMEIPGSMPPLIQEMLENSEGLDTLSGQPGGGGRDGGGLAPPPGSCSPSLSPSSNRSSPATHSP
Experiment: ATG_RARa_TRANS: Attagene TRANS-FACTORIAL HepG2 Assay for human Retinoic Acid Receptor alpha (RARa) (AID 2283005)
Records with an inconclusive call do not appear. Active and inactive are the calls of the source. The calls were made as follows: active = hit-call score of the fitted dose curve at least 0.9, where 1 is the maximum; inconclusive = response in the unintended direction; inactive = score below 0.9.
Thanks in advance; please answer with one of these: 1 (yes) for active, 0 (no) for inactive

Illustrative cases are given below, each with its answer.
CCCCCCCCCCCCCCCCCC#N    0 (no)
O=C(c1ccccc1)c1ccc(O)c(O)c1O    0 (no)
OCCN(CCO)c1ccccc1    0 (no)
CC1=CC[C@H]2C[C@@H]1C2(C)C    0 (no)
C=C(C)[C@H]1CC=C(C)CC1    0 (no)

Q. Could you please tell me the result logged for NCCCN1CCN(CCCN)CC1 in this assay?
A. 0 (no)

Q. For O=c1c2ccccc2nnn1CCl then?
A. 0 (no)

Q. And the next one, CNC(=S)NN ?
A. 0 (no)

Q. Moving on to O=C1CCCCCCCCCCC(=O)OCCO1
A. 0 (no)

Q. Then what about the compound CCCC(=O)OCc1ccccc1 ?
A. 0 (no)

Q. Can you handle O=c1cc[nH]c(=S)[nH]1 next?
A. 0 (no)

Q. Please give the result for Nc1ccc(N)c(Cl)c1 too.
A. 0 (no)

Q. Then what about the compound Cc1ccc(C2OC[C@@H]3OC(c4ccc(C)cc4)O[C@H]([C@H](O)CO)[C@@H]3O2)cc1 (stereo not given in full) ?
A. 0 (no)

* * *

Biological target: Nuclear respiratory factor 1 (Homo sapiens) (UniProt Q16656)
Sequence (Q16656 whole entry, looked up): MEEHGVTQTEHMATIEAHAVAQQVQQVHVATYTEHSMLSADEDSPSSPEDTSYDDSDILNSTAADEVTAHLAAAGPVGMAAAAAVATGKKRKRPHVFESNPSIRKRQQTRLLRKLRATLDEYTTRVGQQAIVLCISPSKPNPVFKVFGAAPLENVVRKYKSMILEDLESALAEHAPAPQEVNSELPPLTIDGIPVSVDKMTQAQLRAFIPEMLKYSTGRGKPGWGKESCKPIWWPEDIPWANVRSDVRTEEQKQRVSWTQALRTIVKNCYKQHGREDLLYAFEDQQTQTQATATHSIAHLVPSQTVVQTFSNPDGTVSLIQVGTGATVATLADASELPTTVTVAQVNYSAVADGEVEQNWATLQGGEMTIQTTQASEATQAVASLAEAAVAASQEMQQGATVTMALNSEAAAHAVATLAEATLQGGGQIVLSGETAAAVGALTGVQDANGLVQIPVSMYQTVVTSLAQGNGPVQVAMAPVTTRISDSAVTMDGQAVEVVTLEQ
Assay: ATG_NRF1_CIS: Attagene CIS-FACTORIAL HepG2 Assay for human Nuclear Respiratory Factor 1 (NRF1) Orphan Gene (AID 2282987)
Conditions: HepG2 NRF1 cis-element reporter, Attagene multiplex; actives raise or lower the signal
Activity calls are given as the source filed them. Rule for the calls: active = hit-call score of the fitted dose curve at least 0.9, where 1 is the maximum; inactive = score below 0.9.
Return exactly one item of active, inactive

Q. Given COC(=O)/C=C/C(C)=C\C=C\C(C)=C\C=C\C=C(C)\C=C\C=C(C)\C=C\C(=O)O , state the outcome it received in this test.
A. inactive

Q. Cool, now O=C(c1ccc(O)cc1)c1ccc(O)cc1O
A. inactive

* * *

Biological target: CCAAT/enhancer-binding protein beta (Homo sapiens)
Experiment: ATG_C_EBP_CIS: Attagene CIS-FACTORIAL HepG2 Assay for human CCAAT/Enhancer Binding Protein (C/EBP) beta (AID 2282927)
Details: HepG2 Attagene cis-factorial transcription factor reporter; actives raise or lower the signal
The source made the active and inactive calls. The calls were made as follows: active = hit-call score of the fitted dose curve at least 0.9, where 1 is the maximum; inactive = score below 0.9.
Please state which outcome applies, choosing from Yes = active, No = inactive

Q. Tell me the recorded outcome of this test for CCCCCCCCCCCCCCCC(=O)OCC .
A. No

Q. And the next one, CCCCC(CC)COCC1CO1 (stereo unspecified) ?
A. No

Q. Same lookup for Nc1ccc(Oc2ccc(N)c(N)c2)cc1 , please.
A. No

Q. Note, next up: c1ccc(CCCc2ccncc2)cc1
A. No

Q. One more compound: O=c1cc[nH]c(=S)[nH]1
A. No

Q. Queued: CCCCOCCOC(=O)COc1nc(Cl)c(Cl)cc1Cl
A. No
